target entity: Cytochrome P450 1A2 (Homo sapiens)
assay comment: Cytochrome P450 Family 1 Subfamily A Member 2 (CYP1A2) small molecule antagonists: luciferase reporter qHTS assay (AID 1671199); further: nearly all actives have a fitted effect of over 50% in size
condition context: P450-Glo CYP1A2 enzyme, luciferin luminescence, 1 h; series mostly up to 53 µM
Inconclusive results are not listed. Calls of active or inactive are those of the source. The call rests on the fitted dose curve; in most records, active means well fitted inhibition curve with a large enough effect in the repeat runs; inconclusive means weak or mixed curves; inactive means no such curve, though single readings can be large or run the other way.
Hello, when you answer, please use one of the following outcomes: active, inactive

Examples with answers:
>>> label_class("COc1ccc(COC=O)cc1")
"active"
>>> label_class("CCCc1ccc(N)cc1")
"active"
>>> label_class("CCn1c(=O)c2c(nc(/C=C/c3ccc(OC)c(OC)c3)n2C)n(CC)c1=O")
"inactive"

API: the following record is the query input.
Entry CCCCCCCCCCCl : call = ?
active
